System: SN12C
Experiment: NCI tumour cell line growth inhibition, 48 h
Active and inactive are the calls of the source. Cut-off read from the data, not from the text of the source: active = GI50 up to about 1.1 µM and inactive = higher.
Could you please report measured GI50 for the items listed next?

Give the measured GI50 of `COc1ccc2nc3cc(Cl)ccc3c(Nc3ccccc3-c3ccccc3Nc3c4ccc(Cl)cc4nc4ccc(OC)cc34)c2c1` .
32.2 µM (inactive)

What about `O=C(O)c1ccc(Nc2nc3cc(C(F)(F)F)ccc3nc2C(=O)O)cc1` ?
> 100 µM (inactive)

Try this compound next: `CCN(CC)c1nc(N(C)C)c2ccccc2n1`
20.9 µM (inactive)

Same read-out for COc1ccc2nc(NC(=O)C(=O)C(C#N)c3ccc(CC#N)cc3)sc2c1 (stereo not given) ?
> 100 µM (inactive)

Next compound up: `CC1=C/C(=N/N2C(=O)/C(=C/c3ccc(Cl)cc3)N=C2c2ccccc2)CC(C)(C)C1`
> 100 µM (inactive)

Cool, now `COc1ccc(C(=O)/C=C2\c3ccccc3C(=O)N2C)cc1`
58.5 µM (inactive)

Repeat with CNC(=O)NCCCCC(NC(=O)OCc1ccccc1)C(=O)OCc1ccccc1 (stereo not given)
24.2 µM (inactive)

Now the same for `Cc1cc2c(c(C(N)=O)c1C)-c1cc(Cl)cc(Cl)c1C2=O`
> 100 µM (inactive)

`CC(=O)N[C@@H](Cc1ccc(O)cn1)C(=O)NCc1ccc2c(c1)OCO2` , same question.
> 100 µM (inactive)

Same question for `c1ccc2c(c1)nnn1c3cnccc3nc21` please.
32.4 µM (inactive)

Further, for `Cc1occc1/C(S)=N\c1ccc(Cl)c(C(=O)OCC(F)(F)F)c1` ?
18.8 µM (inactive)

Now consider `CCOC(=O)NC(C(F)(F)F)(C(F)(F)F)P(=O)(OCC(C)C)OCC(C)C` and answer again.
16.2 µM (inactive)

And what about the compound `O=C(Cn1c(C(=O)/C=C/c2ccc(Cl)cc2)nc2ccccc21)c1ccc(Cl)cc1` ?
14.1 µM (inactive)

Entry to check: CC(=O)NC(C)(C)C1CCC(C)=C(c2ccccc2)C1 (stereo not given)
> 100 µM (inactive)

Input COc1ccc(/C=C2/C(=O)C(c3ccccc3)N(c3ccccc3)C2=O)cc1OC (stereo not given)
> 10 µM (inactive)

// query: CC(C)C1CC(CO)(CNc2cc(Cl)nc(N)n2)C1 (stereo not given)
> 100 µM (inactive)

// same read-out, input: C/C(=N\NC(=N)N)C(CN1CCOCC1)C(c1ccccc1)c1c(O)c2ccccc2oc1=O (stereo not given)
> 100 µM (inactive)

Next compound up: `COc1ccc(OC)c2sc(N3C(=O)/C(=C/c4cccc(Oc5ccccc5)c4)N=C3c3ccccc3)nc12`
> 100 µM (inactive)

Entry to check: `COc1ccc2c(c1)C(=O)/C(=C/c1ccccc1)C2`
> 100 µM (inactive)

Same thing, different compound: `O=C(CCc1nnc2s/c(=C\c3ccc4c(c3)OCO4)c(=O)n12)Nc1cc(Cl)ccc1Cl`
> 100 µM (inactive)

Note, next up: O=C1C(Cl)C(c2ccc(Cl)cc2)N1n1cnc2ccccc2c1=O (stereo not given)
> 100 µM (inactive)

Okay, and `N=C(N)NS(=O)(=O)c1ccc(NCc2cccc3c(=O)c4ccc(Cl)cc4oc23)cc1` ?
> 9.27 µM (inactive)

Then `Cn1c(=O)c2c(nc3[nH]c(=O)c(Br)cn32)n(C)c1=O` ?
> 100 µM (inactive)

What do you get for `COc1cc([C@@H]2c3cc(O)c(OC)cc3C=C(C(N)=O)[C@H]2C(N)=O)ccc1O` ?
> 100 µM (inactive)

Also, CC1(O)CC2(O)C=CC3=C(C(=O)c4cccc(O)c4C3=O)C2(O)C(=O)C1O (stereo not given) please.
3.28 µM (inactive)

Note, next up: NC(CNO)C(=O)O (stereo not given)
> 100 µM (inactive)

Ok, now COc1cc(C[S+]([O-])c2ccc(O)cc2)cc(OC)c1OC (stereo not given)
> 100 µM (inactive)

Now consider CCCCCCCCCCCCCCCCCCNc1ccn(C2OC(COP(=O)(O)OCC(COP(=O)(O)OCC3OC(n4cc(C)c(=O)[nH]c4=O)CC3N=[N+]=[N-])OCCCCCCCCCCCCCCCCCC)C(O)C2O)c(=O)n1 (stereo not given) .
> 100 µM (inactive)

Now give it for `C/N=C(/NC)N(C)c1nc(=[N+](C)C)ss1.[O-][Cl+3]([O-])([O-])[O-]` too.
> 100 µM (inactive)

And then `O=[N+]([O-])c1ccc2sc(/C=N/c3ccc(O)cc3)cc2c1` , what is it?
30.1 µM (inactive)
